Here the recorded fold change (FC) is given for each entry.
Molecular target: DNA topoisomerase 1 (Homo sapiens)
Assay: Inhibition of topoisomerase 1-mediated supercoiled pBR322 relaxation assessed as change in band intensity by electrophoresis relative to camptothecin; also: test concentration or dose not given here
Please reply with the number alone, leaving off any unit.

// solved cases for fold change (FC) follow
- Compound: "CCc1c2c(nc3ccc(OCCC[n+]4cccc(C(C)=O)c4)cc13)-c1cc3c(c(=O)n1C2)COC(=O)[C@]3(O)CC.[Br-]"
  Data value: 0.86
- Compound: "CCc1c2c(nc3ccc(OCCC[n+]4cccc(F)c4)cc13)-c1cc3c(c(=O)n1C2)COC(=O)[C@]3(O)CC.[Br-]"
  Data value: 0.92
- Compound: "CCc1c2c(nc3ccc(OCCCn4cncn4)cc13)-c1cc3c(c(=O)n1C2)COC(=O)[C@]3(O)CC"
  Data value: 0.64
- Compound: "CC[C@@]1(O)C(=O)OCc2c1cc1n(c2=O)Cc2cc3ccccc3nc2-1 [CAMPTOTHECIN]"
  Data value: 1

For `CC[C@@]1(O)C(=O)OCc2c1cc1n(c2=O)Cc2cc3cc(OCC[n+]4cccc(C(C)=O)c4)ccc3nc2-1.[Br-]` on DNA topoisomerase 1 (Homo sapiens), measured fold change (FC) was 1.04

For `CCc1c2c(nc3ccc(OCCCOc4cc(C(F)(F)F)ncn4)cc13)-c1cc3c(c(=O)n1C2)COC(=O)[C@]3(O)CC` on DNA topoisomerase 1 (Homo sapiens), measured fold change (FC) was 0.59

For `CCc1c2c(nc3ccc(OCC[n+]4cccc(C(C)=O)c4)cc13)-c1cc3c(c(=O)n1C2)COC(=O)[C@]3(O)CC.[Br-]` on DNA topoisomerase 1 (Homo sapiens), measured fold change (FC) was 0.97

For `CC[C@@]1(O)C(=O)OCc2c1cc1n(c2=O)Cc2cc3cc(OCCC[n+]4ccccc4)ccc3nc2-1.[Br-]` on DNA topoisomerase 1 (Homo sapiens), measured fold change (FC) was 0.7

For `CC[C@@]1(O)C(=O)OCc2c1cc1n(c2=O)Cc2cc3cc(OCCCn4ccnc4)ccc3nc2-1` on DNA topoisomerase 1 (Homo sapiens), measured fold change (FC) was 0.7

For `CCc1c2c(nc3ccc(OCCCn4cnc5cncnc54)cc13)-c1cc3c(c(=O)n1C2)COC(=O)[C@]3(O)CC` on DNA topoisomerase 1 (Homo sapiens), measured fold change (FC) was 0.72

For `CCc1c2c(nc3ccc(OCC[n+]4cccc(CO)c4)cc13)-c1cc3c(c(=O)n1C2)COC(=O)[C@]3(O)CC.[Br-]` on DNA topoisomerase 1 (Homo sapiens), measured fold change (FC) was 1.02

For `CCc1c2c(nc3ccc(OCC[n+]4cccc(F)c4)cc13)-c1cc3c(c(=O)n1C2)COC(=O)[C@]3(O)CC.[Br-]` on DNA topoisomerase 1 (Homo sapiens), measured fold change (FC) was 1.07

For `CCc1c2c(nc3ccc(OCCC[n+]4cccc(CO)c4)cc13)-c1cc3c(c(=O)n1C2)COC(=O)[C@]3(O)CC.[Br-]` on DNA topoisomerase 1 (Homo sapiens), measured fold change (FC) was 0.95

For `CC[C@@]1(O)C(=O)OCc2c1cc1n(c2=O)Cc2cc3cc(OCCCn4cnc5cncnc54)ccc3nc2-1` on DNA topoisomerase 1 (Homo sapiens), measured fold change (FC) was 0.61

For `CC[C@@]1(O)C(=O)OCc2c1cc1n(c2=O)Cc2cc3cc(OCCCOc4cc(C(F)(F)F)ncn4)ccc3nc2-1` on DNA topoisomerase 1 (Homo sapiens), measured fold change (FC) was 0.67
